- Test system: Plasmodium falciparum
- assay summary: Screen against P. falciparum Asexual Blood Stage (ABS), at 5uM
- Format: functional, Dd2
- settings: tested at 5 uM
Out of some 65,000 compounds screened, about 2,100 (3.2%) showed an effect of 50% or more. The median lay at about -52%. Shown is part of a subset that was picked to be rich in strong results.

{"smiles representation": "Cc1cc(N(C)CCN(C)C2CCCC2)n2nc(C)cc2n1", "measured target": "Plasmodium falciparum", "result unit": "%", "INHIBITION": 55.7}
{"smiles representation": "c1ccc(-c2cc(CNCCCN3CCCCC3)c3nnnn3c2)cc1", "measured target": "Plasmodium falciparum", "result unit": "%", "INHIBITION": 65.4}
{"smiles representation": "CCCn1nc2c(cc1=O)CN(c1ncnc3sccc13)CC2", "measured target": "Plasmodium falciparum", "result unit": "%", "INHIBITION": -82.2}
{"smiles representation": "CC(C)C(=O)NCCc1nc(-c2ccncc2)n[nH]1", "measured target": "Plasmodium falciparum", "result unit": "%", "INHIBITION": -11.5}
{"smiles representation": "Cc1cc(C)nc(N(C)CCN(C)C2CCCC2)n1", "measured target": "Plasmodium falciparum", "result unit": "%", "INHIBITION": 28}
{"smiles representation": "CC(C)c1cc(C(=O)NCCc2nc(-c3cccnc3)n[nH]2)[nH]n1", "measured target": "Plasmodium falciparum", "result unit": "%", "INHIBITION": 14.9}

----------
- Test system: Plasmodium falciparum
- assay summary: Screen against P. falciparum Asexual Blood Stage (ABS), at 5uM
- Assay type: functional, Dd2
- settings: tested at 5 uM
Among all 65,000 compounds or so, about 2,100 (3.2%) showed an effect of 50% or more. The median lay at about -52%. This excerpt belongs to a sample that is enriched for strong results.
Classify by measured INHIBITION: rule met if it is equal to or exceeds -20%, rule not met if it is smaller.

{"molecule": "CN(C)CC1CSCCCN1C(=O)c1ccc(-c2ccccc2)cc1 (configuration not stated)", "class": "rule met"}
{"molecule": "CC(C)(C)OC(=O)N1CCCc2ccc(NCc3ccon3)cc21", "class": "rule not met"}
{"molecule": "Cc1cc(Nc2cnccn2)cc(C2CCCNC2)n1 (configuration not stated)", "class": "rule not met"}
{"molecule": "Cc1cnc(CCNc2cccc(CC3CCCNC3)n2)s1 (configuration not stated)", "class": "rule met"}
{"molecule": "COCCNc1ccc(CC2CCCNC2)cn1 (configuration not stated)", "class": "rule not met"}
{"molecule": "CCn1ccnc1CN(C)c1cc(C2CCCNC2)nc(C)n1 (configuration not stated)", "class": "rule not met"}
{"molecule": "CCN(Cc1ccncc1)C(=O)CCn1c(C)cc2ccccc21", "class": "rule met"}
{"molecule": "CCN(Cc1nc(COC)no1)C(=O)CCn1c(C)cc2ccccc21", "class": "rule met"}
{"molecule": "COc1ccc(CN2C[C@@H]3CN(CCO)C[C@@H]3C2=O)cc1", "class": "rule met"}
{"molecule": "CCCN1CCC(c2nc3ccc(NCc4cccnc4)cn3n2)CC1", "class": "rule not met"}
{"molecule": "CC(=O)N1CCCN(Cc2ccon2)c2ccccc21", "class": "rule not met"}
{"molecule": "Cc1cc2ccccc2n1CCC(=O)NCc1ncc[nH]1", "class": "rule met"}

----------
- System: Plasmodium falciparum
- assay summary: Screen against P. falciparum Asexual Blood Stage (ABS), at 5uM
- Format: functional, Dd2
- settings: tested at 5 uM
Screen size: about 65,000 compounds; about 2,100 (3.2%) showed an effect of 50% or more. The median lay at about -52%. The list comes from a sample in which strong results are over-represented; it also holds close analogues and randomly drawn compounds.

{"molecule": "CC(=O)N1[C@H](CN(C)C)C[C@@H]2CN(C(=O)c3occc3C)CC[C@@H]21", "INHIBITION (%)": 55.3}
{"molecule": "Cc1nn(C)c(N2CCCN(C)CC2)c1CNC(=O)CCC(C)C", "INHIBITION (%)": -12.6}
{"molecule": "CC(=O)N1[C@H](CN(C)C)C[C@@H]2CN(C(=O)c3ccsc3)CC[C@@H]21", "INHIBITION (%)": -108}
{"molecule": "Cc1nc(COC[C@H]2CCC[C@]23CN(CC2CC2)CCO3)cs1", "INHIBITION (%)": 32.7}
{"molecule": "CC(=O)N1[C@H](CN(C)C)C[C@@H]2CN(C(=O)c3ccno3)CC[C@@H]21", "INHIBITION (%)": 22.2}
{"molecule": "COCCN(Cc1sccc1C)C(=O)COc1ccccc1O", "INHIBITION (%)": -65.9}
{"molecule": "CCOc1cc(Cl)c(CN2CCC3(CCCNC3=O)C2)cc1OC (stereo not given)", "INHIBITION (%)": -15.1}
{"molecule": "CC(CN1CCCCCC1)NCc1cc(-c2ccco2)on1 (stereo not given)", "INHIBITION (%)": 18}
{"molecule": "Cc1cc(C)n(CC2CCCN2C(=O)c2cn[nH]c2C)n1 (stereo not given)", "INHIBITION (%)": -90}
{"molecule": "CC(=O)N1[C@H](CN(C)C)C[C@@H]2CN(C(=O)c3cccn3C)CC[C@@H]21", "INHIBITION (%)": 56.5}
{"molecule": "O=C(c1cccc2ncccc12)N1CCCC(n2ccnc2)C1 (stereo not given)", "INHIBITION (%)": -2.7}
{"molecule": "Cc1ccccc1C1(C(=O)NCCN2CCCC2)CCOCC1", "INHIBITION (%)": -5.04}
{"molecule": "CSc1nccc(N2CCC3(CCCN(Cc4ccc(F)cc4)C3)C2)n1 (stereo not given)", "INHIBITION (%)": 2.13}
{"molecule": "CC(=O)N1[C@H](CN(C)C)C[C@@H]2CN(C(=O)c3cnc(C)cn3)CC[C@@H]21", "INHIBITION (%)": 29}
{"molecule": "O=C1NCCCC[C@@H]1NC(=O)C1(N2CCCCC2)Cc2ccccc2C1", "INHIBITION (%)": -107}
{"molecule": "Cc1cnc(N2CCc3c(c(COc4cncnc4)nn3C)C2)nc1", "INHIBITION (%)": -95}
{"molecule": "Cc1ncc(CN(C)CC(O)c2ccc(Br)cc2)s1 (stereo not given)", "INHIBITION (%)": 22.6}
{"molecule": "Cc1nnc(SCCCNc2cc(C3CC3)ncn2)s1", "INHIBITION (%)": -39.6}
{"molecule": "CN(Cc1ccccc1)C(=O)CCN1C[C@H](C2CC2)[C@@H](N(C)C)C1", "INHIBITION (%)": 51.9}
{"molecule": "COCCN(Cc1sccc1C)C(=O)C1CCCN(C(N)=O)C1 (stereo not given)", "INHIBITION (%)": -75.6}
{"molecule": "c1cnc2ccc(C[C@@H]3CC[C@H](CN4CCCOCC4)O3)cc2c1", "INHIBITION (%)": 57.9}
{"molecule": "CSc1nccc(N2CCC3(CCCN(Cc4cccc(C)c4)C3)C2)n1 (stereo not given)", "INHIBITION (%)": 27.2}
{"molecule": "CCN1CCCC(NC(=O)c2ccc(C)[nH]c2=O)C1 (stereo not given)", "INHIBITION (%)": -166}
{"molecule": "CN(C)CCNC(=O)CCC1CCN(C(=O)c2ccc(Cl)cc2O)CC1", "INHIBITION (%)": -57.2}
{"molecule": "Cc1nc(COC[C@H]2CCC[C@]23CN(C2CCOC2)CCO3)cs1 (stereo not given in full)", "INHIBITION (%)": -51.5}
{"molecule": "N#CCCCS(=O)(=O)NC1(c2cccc(Br)c2)CC1", "INHIBITION (%)": -148}
{"molecule": "COCCN(Cc1sccc1C)C(=O)C1CCN(C(C)C)CC1", "INHIBITION (%)": 57.7}
{"molecule": "c1cncc(C[C@@H]2CC[C@H](CN3CCCOCC3)O2)c1", "INHIBITION (%)": -54}
{"molecule": "O=C(NCCN1CCCC1)C1(c2ccc(Cl)cc2)CCOCC1", "INHIBITION (%)": 63.7}
{"molecule": "CC(=O)N1[C@H](CN(C)C)C[C@@H]2CN(C(=O)c3cccc(F)c3)CC[C@@H]21", "INHIBITION (%)": -116}
{"molecule": "CC(C)Cc1cc(CN2C[C@@H]3CC[C@H]2CN(Cc2cscn2)C3)n[nH]1", "INHIBITION (%)": 66.6}
{"molecule": "O=C(NC1CCNCC1)C1(N2CCCCC2)Cc2ccccc2C1", "INHIBITION (%)": 62.9}
{"molecule": "Cc1nc(COC[C@@H]2CCC[C@@]23CNCCO3)cs1", "INHIBITION (%)": 47.5}
{"molecule": "O=C(NCc1nn(-c2ccccc2)c2c1CCC2)C1CC1", "INHIBITION (%)": -137}
{"molecule": "CN(Cc1noc(C2CC2)n1)C1CCN(Cc2nnc(C3CC3)o2)C1 (stereo not given)", "INHIBITION (%)": -122}
{"molecule": "Cc1ccc(N2CC3(COCCN(Cc4ccccn4)C3)OCC2=O)s1 (stereo not given)", "INHIBITION (%)": -89.9}
{"molecule": "Cc1c[nH]nc1C1CCCCN1C(=O)CCn1nccc1C (stereo not given)", "INHIBITION (%)": -97}
{"molecule": "CCN(Cc1ccccc1)C(=O)CCN1C[C@@H](C(=O)O)[C@H](C2CC2)C1", "INHIBITION (%)": -49.1}
{"molecule": "CC(NCC1(N(C)C)CCOCC1)c1ccc(S(C)(=O)=O)cc1 (stereo not given)", "INHIBITION (%)": -56.25}
{"molecule": "CN(C)[C@@H]1CCN(C(=O)c2cccn2C)[C@H]1Cc1cnn(C)c1", "INHIBITION (%)": -109}
{"molecule": "C[C@@H]1CN(CCC(=O)N(C)Cc2ccccc2)C[C@@]1(O)C1CCC1", "INHIBITION (%)": 20.7}
{"molecule": "CCCS(=O)(=O)N1CCC(NC(=O)c2cc3ccccc3s2)CC1", "INHIBITION (%)": 7.92}
{"molecule": "Cc1ccccc1C1(C(=O)NCCN2CCCCC2C)CCOCC1 (stereo not given)", "INHIBITION (%)": 28.2}
{"molecule": "CC(C)(C)c1nc(CN2CCCN(Cc3cccs3)CC2)no1", "INHIBITION (%)": 30.6}
{"molecule": "Cc1nccn1-c1ccc(N2CCC(NC(C)CC(C)C)CC2)cc1 (stereo not given)", "INHIBITION (%)": 30.2}
